- study-target: HIV-1 JR-CSF Env I415A (HIV-1 (isolate JR-CSF)) (UniProt P20871)
- assay-summary: cell-based or functional assay
reported-metric: Fold IC50 increase relative to wild-type
Report field: quantity (unit follows the number).

Tell me the measured Fold IC50 increase relative to wild-type of PGT-130 (antibody, V domains shown) VH: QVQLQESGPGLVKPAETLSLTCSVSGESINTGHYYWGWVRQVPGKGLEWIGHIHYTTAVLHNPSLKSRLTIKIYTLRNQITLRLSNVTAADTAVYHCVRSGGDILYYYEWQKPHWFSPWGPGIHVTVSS VL: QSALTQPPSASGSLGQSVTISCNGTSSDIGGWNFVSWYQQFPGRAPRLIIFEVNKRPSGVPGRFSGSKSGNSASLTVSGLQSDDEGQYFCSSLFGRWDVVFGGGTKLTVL , please. 0.6 fold

Moving on to another binder below.
Tell me the measured Fold IC50 increase relative to wild-type of PGT-127 (antibody, V domains shown) VH: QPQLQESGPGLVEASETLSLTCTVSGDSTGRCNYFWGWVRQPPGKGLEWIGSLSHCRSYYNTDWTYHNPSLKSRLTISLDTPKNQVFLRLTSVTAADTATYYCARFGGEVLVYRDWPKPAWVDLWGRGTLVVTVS VL: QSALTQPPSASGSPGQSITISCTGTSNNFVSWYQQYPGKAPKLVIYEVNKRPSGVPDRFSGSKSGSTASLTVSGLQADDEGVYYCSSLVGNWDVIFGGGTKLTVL , please. 2.1 fold
